Cited source for all entries: PubChem BioAssay (NCI)

Test system: HCC-2998 colon
Assay: NCI tumour cell line growth inhibition, 48 h
Decide by TGI: equal to or exceeding 30 µM means Met, less means Not met.

Cc1cc(N(CCOS(C)(=O)=O)CCOS(C)(=O)=O)ccc1C=Nc1ccc(-c2csc(-c3ccc(Br)cc3)n2)cc1 :: Met
Nc1nc(-c2ccc(Cl)cc2)cc(-c2ccccc2)c1-c1nc2ccccc2o1 :: Met
CCOC(=O)c1cc(C#N)[nH]c1-c1ccsc1 :: Met

In plain terms: is recorded TGI at least 30 µM for CC1c2cc(c3c(c2O)CN([C@@H](C)C2CCCCC2)CO3)C(C)c2cc(c3c(c2O)CN([C@@H](C)C2CCCCC2)CO3)C(C)c2cc(c3c(c2O)CN([C@@H](C)C2CCCCC2)CO3)C(C)c2cc1c1c(c2O)CN([C@@H](C)C2CCCCC2)CO1 (some centres not stated) ? Not met

In plain terms: is recorded TGI at least 30 µM for Cc1cc(O)c2c(c1)CC(O)C1=C2C(=O)c2c(O)ccc(OC3CC(O)C(OC4CC(OC5CCC(O)C(C)O5)C(O)C(C)O4)C(C)O3)c2C1=O (configuration not stated) ? Not met

In plain terms: is recorded TGI at least 30 µM for CC1=Nc2ccccc2C12C(c1ccccc1)C(c1ccccc1)C(=O)N1c3ccccc3CC12 (configuration not stated) ? Met

In plain terms: is recorded TGI at least 30 µM for "c1cc(C[S+]2CCCC2)sc1C[S+]1CCCC1" ? Met

In plain terms: is recorded TGI at least 30 µM for "COc1ccc2c(c1)C(=O)c1c-2c(NCCN(C)C)nc2ccccc12" ? Not met

In plain terms: is recorded TGI at least 30 µM for "N#CSc1ccc(S(N)(=O)=O)cc1" ? Met

---

Tested on: UACC-257 melanoma
Experiment: NCI tumour cell line growth inhibition, 48 h
metric: TGI (µM)
API: value field is a number in µM; no unit string.

Reference set (3 entries):
CC1=C[C@@H]2[C@@H](CC(CO)=C[C@H]3[C@@H]4C(C)(C)[C@]4(OCC(C)C)[C@H](OCC(C)C)[C@@H](C)[C@]23O)C1=O :: 3.72
c1ccc2c(CNCCCCCCCCCCCCNCc3cccc4ccccc34)cccc2c1 :: 3.17
COc1cccc(C2c3cc4c(cc3OC(N3CCCCC3)C2C)OCO4)c1OC (centres undefined) :: 36.2

Send back UACC-257 melanoma TGI of COc1ccc(C(SCC(N)C(=O)O)(c2ccc(OC)cc2)c2ccc(OC)cc2)cc1 (centres undefined) only. 17.3

---

Test system: HT29 colon
Assay: NCI tumour cell line growth inhibition, 48 h
Decide by TGI: equal to or exceeding 40 µM means 1, less means -1.

CN(C)Cc1cc(/C=C/C(=O)c2ccc(Cl)c(Cl)c2)cc(CN(C)C)c1O :: -1
COC(=O)c1ccc(NCC2=CC(=O)C=CC2=O)cc1 :: -1

In plain terms: is recorded TGI at least 40 µM for "N#CSc1ccc(S(N)(=O)=O)cc1" ? 1

In plain terms: is recorded TGI at least 40 µM for "COC(=O)Cc1cc(=O)n2c([nH]c3ccccc32)c1C#N" ? 1

In plain terms: is recorded TGI at least 40 µM for "O=S(=O)(Nc1ccccn1)c1ccc(N=Nc2ccc(O)c3ncccc23)cc1" ? -1

In plain terms: is recorded TGI at least 40 µM for "COCN1C(=O)[C@@H]2CCCN2C(=O)c2ccc([N+](=O)[O-])cc21" ? 1

In plain terms: is recorded TGI at least 40 µM for COc1ccc(C2=NN(C(=O)c3cccnc3)C(O)(c3cc(F)c(Cl)cc3Cl)C2)cc1OC (stereo unspecified) ? -1

In plain terms: is recorded TGI at least 40 µM for "C=C(C)[C@@H]1CC[C@]2(C(N)=O)CC[C@]3(C)[C@H](CC[C@@H]4[C@@]5(C)C/C(=C/c6cccnc6)[C@H](O)C(C)(C)[C@@H]5CC[C@]43C)[C@@H]12" ? 1

In plain terms: is recorded TGI at least 40 µM for "O=C(NNC(=O)c1nsc2ccccc12)c1ccc(Cl)cc1" ? 1
